Listing of recorded composite z-score by entry.
# SYSTEM: Neurogenic locus notch homolog protein 2 (Homo sapiens) (UniProt Q04721)
# Sequence (Q04721 whole entry, looked up): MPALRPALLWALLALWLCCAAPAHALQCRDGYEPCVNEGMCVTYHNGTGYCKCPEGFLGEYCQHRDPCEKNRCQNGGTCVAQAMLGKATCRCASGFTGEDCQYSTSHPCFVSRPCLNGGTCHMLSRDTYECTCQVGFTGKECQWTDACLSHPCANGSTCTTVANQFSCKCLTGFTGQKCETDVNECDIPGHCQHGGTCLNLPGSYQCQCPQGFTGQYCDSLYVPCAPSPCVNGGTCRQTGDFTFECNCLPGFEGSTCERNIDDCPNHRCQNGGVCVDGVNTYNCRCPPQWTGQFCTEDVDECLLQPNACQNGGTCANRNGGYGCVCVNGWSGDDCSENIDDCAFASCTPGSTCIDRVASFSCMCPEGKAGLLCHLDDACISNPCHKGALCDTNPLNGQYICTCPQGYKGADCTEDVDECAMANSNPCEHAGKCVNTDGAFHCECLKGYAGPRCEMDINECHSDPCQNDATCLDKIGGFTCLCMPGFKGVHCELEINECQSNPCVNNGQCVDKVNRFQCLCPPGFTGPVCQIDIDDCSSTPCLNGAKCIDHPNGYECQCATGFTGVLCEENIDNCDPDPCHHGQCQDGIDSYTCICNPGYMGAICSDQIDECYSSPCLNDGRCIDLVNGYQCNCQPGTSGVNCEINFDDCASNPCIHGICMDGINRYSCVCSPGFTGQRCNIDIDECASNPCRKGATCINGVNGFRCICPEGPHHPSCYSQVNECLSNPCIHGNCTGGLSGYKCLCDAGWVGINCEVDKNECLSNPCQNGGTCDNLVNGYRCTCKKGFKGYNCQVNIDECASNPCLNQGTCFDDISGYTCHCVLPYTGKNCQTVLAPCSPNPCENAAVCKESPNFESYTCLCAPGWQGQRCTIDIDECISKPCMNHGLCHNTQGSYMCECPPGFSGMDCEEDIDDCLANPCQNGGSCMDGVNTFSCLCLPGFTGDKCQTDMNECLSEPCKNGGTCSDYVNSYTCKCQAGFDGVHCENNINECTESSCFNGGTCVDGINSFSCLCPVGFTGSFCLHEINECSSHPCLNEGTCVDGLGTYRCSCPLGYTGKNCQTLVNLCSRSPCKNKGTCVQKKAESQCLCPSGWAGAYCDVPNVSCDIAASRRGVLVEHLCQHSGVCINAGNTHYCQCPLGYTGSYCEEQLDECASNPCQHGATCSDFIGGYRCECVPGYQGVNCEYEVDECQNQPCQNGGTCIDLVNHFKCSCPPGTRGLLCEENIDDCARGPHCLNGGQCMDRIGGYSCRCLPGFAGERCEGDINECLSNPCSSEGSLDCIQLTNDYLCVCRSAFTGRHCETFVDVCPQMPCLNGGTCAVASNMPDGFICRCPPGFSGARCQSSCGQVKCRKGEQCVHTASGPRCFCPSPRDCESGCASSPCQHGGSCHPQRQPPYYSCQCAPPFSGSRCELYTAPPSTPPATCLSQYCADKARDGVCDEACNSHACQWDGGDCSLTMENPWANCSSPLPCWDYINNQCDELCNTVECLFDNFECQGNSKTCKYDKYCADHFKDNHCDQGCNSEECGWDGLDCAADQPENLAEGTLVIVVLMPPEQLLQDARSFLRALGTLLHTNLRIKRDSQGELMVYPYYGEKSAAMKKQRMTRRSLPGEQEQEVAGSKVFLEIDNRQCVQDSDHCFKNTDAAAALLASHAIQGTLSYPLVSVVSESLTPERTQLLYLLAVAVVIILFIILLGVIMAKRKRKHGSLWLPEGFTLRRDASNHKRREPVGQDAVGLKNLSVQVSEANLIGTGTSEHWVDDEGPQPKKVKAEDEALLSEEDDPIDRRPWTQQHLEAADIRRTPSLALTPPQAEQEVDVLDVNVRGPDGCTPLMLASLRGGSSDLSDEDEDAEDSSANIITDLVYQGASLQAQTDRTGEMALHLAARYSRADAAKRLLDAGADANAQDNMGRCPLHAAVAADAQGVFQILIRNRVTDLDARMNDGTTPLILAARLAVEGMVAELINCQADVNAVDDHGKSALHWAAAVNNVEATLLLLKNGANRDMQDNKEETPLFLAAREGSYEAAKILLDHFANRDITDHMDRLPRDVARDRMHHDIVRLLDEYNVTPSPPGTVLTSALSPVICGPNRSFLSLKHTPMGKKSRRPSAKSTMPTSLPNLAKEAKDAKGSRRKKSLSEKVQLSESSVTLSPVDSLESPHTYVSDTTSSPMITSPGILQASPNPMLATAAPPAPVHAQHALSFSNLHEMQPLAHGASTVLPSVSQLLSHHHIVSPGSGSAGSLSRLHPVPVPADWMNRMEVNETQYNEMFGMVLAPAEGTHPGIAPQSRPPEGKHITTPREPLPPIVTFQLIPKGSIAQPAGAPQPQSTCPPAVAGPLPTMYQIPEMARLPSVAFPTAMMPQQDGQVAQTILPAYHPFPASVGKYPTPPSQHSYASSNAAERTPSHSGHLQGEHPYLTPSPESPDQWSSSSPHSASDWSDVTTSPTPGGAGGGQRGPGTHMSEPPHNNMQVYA
# TEST_PROTOCOL: Notch2 binders on small-molecule microarrays, primary screen, biochemical, small-molecule microarray, 635 nm fluorescence, stem cell growth factors (AID 1073)
# CONDITIONS_USED: Notch2 binding, higher = more signal
Lab note: record the figure alone, no unit after it.

Some solved cases for reference:
MOLECULE	composite z-score
COc1ccc(C(=O)Nc2ccc(CN3C(=O)[C@@]4(O[C@@H](CCn5cc([C@H](O)c6ccccc6)nn5)[C@H]([Si](C)(C)c5ccc(OC)cc5)[C@H]4C)c4ccccc43)cc2)cc1	-0.244
[N-]=[N+]=Nc1ccccc1C[C@]1(C(=O)NCC(O)CO)N=C(c2ccc(OCCCO)cc2)O[C@H]1c1ccccc1N=[N+]=[N-] (stereo not given in full)	0.379
CN1C(=O)[C@]2(Cc3ccccc3)N=C(c3ccc(OCCCO)cc3)O[C@@H]2c2ccccc21	0.826
O=C1OCCC/C=C\[C@H]2OC34C=CCN(Cn5nnc6ccccc65)C(=O)[C@H]3N(CCCCCCO)C(=O)[C@@H]4C12 (stereo not given in full)	-0.969

Moving on to the next molecule.
Problem: # lookup: composite z-score of CCOC(=O)C[C@H]1[C@H](OC(=O)c2cc3ccccc3oc2=O)[C@@H](NC(=O)Cc2ccc(OC)cc2)c2cc(OCCCO)ccc2N1C(=O)c1ccccc1
Result: 0.359
